- STUDY TARGET: T1, cynomolgus monkey serum albumin (cynomolgus monkey, UniProt A2V9Z4 25-608)
- T1 construct: also called cyno albumin; CSA
- PROCEDURE TEXT: species reactivity, screening by ELISA and Biacore
OBSERVABLE: binding result

{"BINDER": "9E10 (VHH) VHH: QLQVVESGGGLVQAGGSLRLSCTTSGRAFIGYAMGWFRQAPGKEREFVAAISWFAGDTTDYANSVKGRFTISRDNAKNTVYLQMNSLKPEDTAVYVCAASSARPLSSRSDEYHYWGQGTQVTVSS", "binding result": "binds"}
{"BINDER": "4G12 (VHH) VHH: QLQLVESGGGLVQAGGSLRLSCVASGRSFSTYGMGWFRQAPGAEREFAAAINWKGDRYYADSVKGRFTISRDNAKNTVFLEMNSLKPEDTGVYYCAADSDGSAFSRRLEYDYWGQGTQVTVSS", "binding result": "binds"}
{"BINDER": "1E04 (VHH) VHH: QLQLVESGGGLVQTGGSLRLSCAASGRTFSNYNAGWFRQVPGKEPEFVAAINWSGGTTYYADSVKGRFTISRDNAKNTVYLQMNSLKPEDTAVYYCAADPDWSILNPREYDYWGQGTRVTVSS", "binding result": "binds"}
{"BINDER": "2B03 (VHH) VHH: QLQLVESGGGLVQAGGSLRLSCAASGRAISSYVMAWFRQAPGKEREFVTSINWSGGSTYYAHSVKGRFTISRDNAKNTVYLQMNTLKPEDTAVYYCAADLYGLGYEVMSYDYWGQGTQVTVSS", "binding result": "binds"}

IN: // query binding result value for entry 12G03 (VHH) VHH: QVQLVESGGGLVQAGGSLRLSCAASERAFSHSNMAWFRQAPGKEREFVAHIHWRGSTTYLDSVKGRFTISRDNAKNTVYLQMNGLRLEDTAVYYCAADSARRILVTVSTSYDYWGQGTQVTVSS
OUT: binds

IN: // query binding result value for entry 2A10 (VHH) VHH: EVQLVESGGGLVQAGGSLRLSCAASGRTFSSYAMGWFRQAPGKEREFVATINWSGGSTYYADSVKGRFTISRDNAKNTVYLQMNSLKPEDTAVYYCAADLYGPGFVLSMEYDYWGQGTQVTVSS
OUT: binds

IN: // query binding result value for entry 9F02 (VHH) VHH: EVQLVESGGGLVQAGGSLRLSCTASRRAFIGYAMGWFRQAPGKEREFVAAISWFAGDTTDYADSVKGRFTISRDNAKNTVYLQMNGLKPEDTAVYVCAASSARPMSGRSDEYHYWGQGTQVTVSS
OUT: binds

The values you see were collected from patent US20250223342A1.
